For each entry below, report its MIC value.
- System: Pseudomonas aeruginosa
- measurement-notes: Antibacterial activity against Pseudomonas aeruginosa 119 incubated for 18 to 24 hrs by broth microdilution method
- Assay type: functional
- details: time 18-24 hrs
Non-standard residues stand in square brackets, D forms with d. Residues, ends and D or L forms follow the SMILES beside them. Bip = N[C@@H](Cc1ccc(-c2ccccc2)cc1)C(=O)O; 2Nal = N[C@@H](Cc1ccc2ccccc2c1)C(=O)O
Reply with just the number (in µM).

// MIC lookup, key: CC(C)C[C@H](NC(=O)[C@H](CC(C)C)NC(=O)[C@@H](NC(=O)[C@H](CCCCN)NC(=O)[C@H](Cc1ccc(-c2ccccc2)cc1)NC(=O)[C@H](CCCNC(=N)N)NC(=O)[C@H](CCCCN)NC(=O)[C@H](CC(C)C)NC(=O)[C@H](CC(C)C)NC(=O)CN)[C@@H](C)O)C(N)=O (H-GLLKR[Bip]KTLL-NH2) 16

Return reported MIC; argument: CC(C)C[C@H](NC(=O)[C@H](CC(C)C)NC(=O)[C@@H](NC(=O)[C@H](CCCCN)NC(=O)[C@H](Cc1ccc2ccccc2c1)NC(=O)[C@H](CCCNC(=N)N)NC(=O)[C@H](CCCCN)NC(=O)[C@H](CC(C)C)NC(=O)[C@H](CC(C)C)NC(=O)CN)[C@@H](C)O)C(N)=O (H-GLLKR[2Nal]KTLL-NH2) 16

* * *

- System: Acinetobacter baumannii
- measurement-notes: Antibacterial activity against Acinetobacter baumannii ATCC 19606 incubated for 18 to 24 hrs by broth microdilution method
- Format: functional
- details: time 18-24 hrs
Non-standard residues stand in square brackets, D forms with d. Residues, ends and D or L forms follow the SMILES beside them. Bip = N[C@@H](Cc1ccc(-c2ccccc2)cc1)C(=O)O; pY = N[C@@H](Cc1ccc(OP(=O)(O)O)cc1)C(=O)O; pT = C[C@@H](OP(=O)(O)O)[C@H](N)C(=O)O
measured-attribute: MIC (µM)
I only need the number, in µM, no unit after it.

Query: MIC; subject: O=C(O)c1cn(C2CC2)c2cc(N3CCNCC3)c(F)cc2c1=O [CIPROFLOXACIN] 16

Suppose we examine the compound CC(C)C[C@H](NC(=O)[C@H](CC(C)C)NC(=O)[C@@H](NC(=O)[C@H](CCCCN)NC(=O)[C@H](Cc1ccc(-c2ccccc2)cc1)NC(=O)[C@H](CCCNC(=N)N)NC(=O)[C@H](CCCCN)NC(=O)[C@H](CC(C)C)NC(=O)[C@H](CC(C)C)NC(=O)CN)[C@@H](C)OP(=O)(O)O)C(N)=O (H-GLLKR[Bip]K[pT]LL-NH2) ; what MIC value has been reported? 64

Consider the compound CC(C)C[C@H](NC(=O)[C@H](CC(C)C)NC(=O)[C@H](Cc1ccc(OP(=O)(O)O)cc1)NC(=O)[C@H](CCCCN)NC(=O)[C@H](Cc1ccc(-c2ccccc2)cc1)NC(=O)[C@H](CCCNC(=N)N)NC(=O)[C@H](CCCCN)NC(=O)[C@H](CC(C)C)NC(=O)[C@H](CC(C)C)NC(=O)CN)C(N)=O (H-GLLKR[Bip]K[pY]LL-NH2) and give its measured MIC. 8

Entry CC(C)C[C@H](NC(=O)[C@H](CC(C)C)NC(=O)[C@H](Cc1ccc(OP(=O)(O)O)cc1)NC(=O)[C@H](CCCCN)NC(=O)[C@H](CC(C)C)NC(=O)[C@H](CCCNC(=N)N)NC(=O)[C@H](CCCCN)NC(=O)[C@H](Cc1c[nH]c2ccccc12)NC(=O)[C@H](CC(C)C)NC(=O)CN)C(N)=O (H-GLWKRLK[pY]LL-NH2) has what MIC? 8

* * *

- measurement-notes: Hemolytic activity in mouse erythrocyte incubated for 1 hr by microplate reader assay
- Assay type: toxicity, cell-based
Non-standard residues stand in square brackets, D forms with d. Residues, ends and D or L forms follow the SMILES beside them. Bip = N[C@@H](Cc1ccc(-c2ccccc2)cc1)C(=O)O; pY = N[C@@H](Cc1ccc(OP(=O)(O)O)cc1)C(=O)O; pT = C[C@@H](OP(=O)(O)O)[C@H](N)C(=O)O; 2Nal = N[C@@H](Cc1ccc2ccccc2c1)C(=O)O
measured-attribute: MHC

Please look up its MHC: CC(C)C[C@H](NC(=O)[C@H](CC(C)C)NC(=O)[C@@H](NC(=O)[C@H](CCCCN)NC(=O)[C@H](CC(C)C)NC(=O)[C@H](CCCNC(=N)N)NC(=O)[C@H](CCCCN)NC(=O)[C@H](Cc1ccc2ccccc2c1)NC(=O)[C@H](CC(C)C)NC(=O)CN)[C@@H](C)O)C(N)=O (H-GL[2Nal]KRLKTLL-NH2) 154.3 µM

Give the measured MHC of CC(C)C[C@H](NC(=O)[C@H](CC(C)C)NC(=O)[C@@H](NC(=O)[C@H](CCCCN)NC(=O)[C@H](CC(C)C)NC(=O)[C@H](CCCNC(=N)N)NC(=O)[C@H](CCCCN)NC(=O)[C@H](Cc1ccc(-c2ccccc2)cc1)NC(=O)[C@H](CC(C)C)NC(=O)CN)[C@@H](C)O)C(N)=O (H-GL[Bip]KRLKTLL-NH2) . 47.48 µM

Which value of MHC has been reported for CC(C)C[C@H](NC(=O)[C@H](CC(C)C)NC(=O)[C@@H](NC(=O)[C@H](CCCCN)NC(=O)[C@H](Cc1ccc2ccccc2c1)NC(=O)[C@H](CCCNC(=N)N)NC(=O)[C@H](CCCCN)NC(=O)[C@H](CC(C)C)NC(=O)[C@H](CC(C)C)NC(=O)CN)[C@@H](C)OP(=O)(O)O)C(N)=O (H-GLLKR[2Nal]K[pT]LL-NH2) in the records? > 256 µM

Name the reported MHC value associated with the compound CC(C)C[C@H](NC(=O)[C@H](CC(C)C)NC(=O)[C@H](Cc1ccc(O)cc1)NC(=O)[C@H](CCCCN)NC(=O)[C@H](CC(C)C)NC(=O)[C@H](CCCNC(=N)N)NC(=O)[C@H](CCCCN)NC(=O)[C@H](Cc1ccc(-c2ccccc2)cc1)NC(=O)[C@H](CC(C)C)NC(=O)CN)C(N)=O (H-GL[Bip]KRLKYLL-NH2) 27.38 µM

// query MHC value for entry CC(C)C[C@H](NC(=O)[C@H](CC(C)C)NC(=O)[C@@H](NC(=O)[C@H](CCCCN)NC(=O)[C@H](Cc1ccc2ccccc2c1)NC(=O)[C@H](CCCNC(=N)N)NC(=O)[C@H](CCCCN)NC(=O)[C@H](CC(C)C)NC(=O)[C@H](CC(C)C)NC(=O)CN)[C@@H](C)O)C(N)=O (H-GLLKR[2Nal]KTLL-NH2) > 256 µM

Entry under review: CC(C)C[C@H](NC(=O)[C@H](CC(C)C)NC(=O)[C@H](Cc1ccc(OP(=O)(O)O)cc1)NC(=O)[C@H](CCCCN)NC(=O)[C@H](CC(C)C)NC(=O)[C@H](CCCNC(=N)N)NC(=O)[C@H](CCCCN)NC(=O)[C@H](Cc1ccc(-c2ccccc2)cc1)NC(=O)[C@H](CC(C)C)NC(=O)CN)C(N)=O (H-GL[Bip]KRLK[pY]LL-NH2) . Reported MHC? > 256 µM

If you can, please state the reported MHC value of CC(C)C[C@H](NC(=O)[C@H](CC(C)C)NC(=O)[C@H](Cc1ccc(OP(=O)(O)O)cc1)NC(=O)[C@H](CCCCN)NC(=O)[C@H](Cc1ccc(-c2ccccc2)cc1)NC(=O)[C@H](CCCNC(=N)N)NC(=O)[C@H](CCCCN)NC(=O)[C@H](CC(C)C)NC(=O)[C@H](CC(C)C)NC(=O)CN)C(N)=O (H-GLLKR[Bip]K[pY]LL-NH2) . 131.69 µM

What value of MHC has been reported for the following compound? CC(C)C[C@H](NC(=O)[C@H](CC(C)C)NC(=O)[C@H](Cc1ccc(OP(=O)(O)O)cc1)NC(=O)[C@H](CCCCN)NC(=O)[C@H](CC(C)C)NC(=O)[C@H](CCCNC(=N)N)NC(=O)[C@H](CCCCN)NC(=O)[C@H](Cc1c[nH]c2ccccc12)NC(=O)[C@H](CC(C)C)NC(=O)CN)C(N)=O (H-GLWKRLK[pY]LL-NH2) 268.04 µM

I am curious: what MHC value has been reported for CC(C)C[C@H](NC(=O)[C@H](CC(C)C)NC(=O)[C@@H](NC(=O)[C@H](CCCCN)NC(=O)[C@H](CC(C)C)NC(=O)[C@H](CCCNC(=N)N)NC(=O)[C@H](CCCCN)NC(=O)[C@H](Cc1ccc2ccccc2c1)NC(=O)[C@H](CC(C)C)NC(=O)CN)[C@@H](C)OP(=O)(O)O)C(N)=O (H-GL[2Nal]KRLK[pT]LL-NH2) ? > 256 µM

Item CC(C)C[C@H](NC(=O)[C@H](CC(C)C)NC(=O)[C@@H](NC(=O)[C@H](CCCCN)NC(=O)[C@H](Cc1ccc(-c2ccccc2)cc1)NC(=O)[C@H](CCCNC(=N)N)NC(=O)[C@H](CCCCN)NC(=O)[C@H](CC(C)C)NC(=O)[C@H](CC(C)C)NC(=O)CN)[C@@H](C)OP(=O)(O)O)C(N)=O (H-GLLKR[Bip]K[pT]LL-NH2) has what recorded MHC? > 256 µM
